B1: glmS ribozyme (parent)
chain: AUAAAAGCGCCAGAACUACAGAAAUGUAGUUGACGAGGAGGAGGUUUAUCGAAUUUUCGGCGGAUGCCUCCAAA

- Variants of: B1
- method: self-cleavage kobs at 640 uM GlcN6P; higher = faster cleavage; RNA array
- assay.setup: with glucosamine-6-phosphate
This sample holds only a part of the variants without activity.
readout.kind: self-cleavage kobs at 640 uM GlcN6P

Record excerpt, results attached:
G9U G29C A33U A64U : < 1e-05 s⁻¹
C8G G32U G44C : < 1e-05 s⁻¹
G9C C10U G41A G43U : < 1e-05 s⁻¹

Lab book: self-cleavage kobs at 640 uM GlcN6P of A14U A42C A64C noted as < 1e-05 s⁻¹

Lab book: self-cleavage kobs at 640 uM GlcN6P of G32C C34A noted as < 1e-05 s⁻¹
